Test system: β-etherase
ASSAY DETAILS: Phenol oxidase assay (substrate specificity) with β-etherase
Type: biochemical, P. putredinis NO1
EXPERIMENTAL CONTEXT: 1 mM substrate, 50 mM Tris pH 8.5, room temperature
READOUT NAME: activity of the β-etherase against the substrate

Some compounds with recorded activity of the β-etherase against the substrate:
O=c1c(O)c(-c2ccc(O)c(O)c2)oc2cc(O)cc(O)c12: showed activity
O=C(O)c1ccc(O)cc1 [4-Hydroxybenzoic acid]: showed activity
N[C@@H](Cc1ccc(O)c(O)c1)C(=O)O [L-Dopa, 3,4-dihydroxy-L-phenylalanine]: did not display activity
COc1cc(C(=O)O)ccc1O: showed activity

Asked: Return value of activity of the β-etherase against the substrate for input "N[C@@H](Cc1ccc(O)cc1)C(=O)O" , no commentary.
Given back: did not display activity
